Test system: SF-539 CNS
assay: NCI-60 one-dose screen, 48 h
measurement context: 10 µM unless noted
Compounds without any hit were thinned out: in the full panel of roughly 83,000, 20% have a hit. Activity calls are given as the source filed them. How the source made its calls: active means growth percent below 10; inactive means the rest.
The categories you may choose from are YES for active, NO for inactive

Examples from the recorded data:
# compound, assigned category
measured = [
    ("COC(=O)/C=C1\\S/C(=N\\NC(=O)c2cc3ccc2/C=C\\c2ccc(cc2)/C=C\\3)N(Cc2ccccc2)C1=O", "NO"),
    ("CN1CCC(=C(c2ccccc2)c2ccccc2)C(c2ccccc2)C1 (centres undefined)", "NO"),
    ("Brc1ccc2[nH]cc(-c3cncn3CCc3ccccc3)c2c1", "NO"),
    ("CC(=O)c1cc2c(N)c(C(=O)Nc3cccc4ccncc34)sc2nc1C", "NO"),
    ("CCCCCCCCCCCCCCCC[N+]1(C)CCN(SN2CC[N+](C)(CCCCCCCCCCCCCCCC)CC2)CC1", "NO"),
]

Hi, do you know how CC1(C)CC[C@]2(C(=O)O)CC[C@]3(C)C(=CC[C@@H]4[C@@]5(C)Cc6c([nH]c7ccccc67)C(C)(C)[C@@H]5CC[C@]43C)[C@@H]2C1 came out in this test? NO

Hi, do you know how CCCC/C=N/NC(=S)NCc1ccccc1 came out in this test? NO

Hi, do you know how CCOC(=O)c1ccc2c(c1)ncn2-c1ccc(NC(=O)Nc2cccc(C)c2)cc1 came out in this test? NO

Hi, do you know how CCSCC1CC(O)(c2ccccc2)CC(c2ccc(F)cc2)O1 (centres undefined) came out in this test? NO

----------
Tested on: HOP-62 NSCLC
assay: NCI-60 one-dose screen, 48 h (100 = growth as untreated, 0 = no growth, -100 = all killed)
measurement context: 10 µM unless noted
This is part of a sample that, as a whole, favours compounds with a hit. Of some 83,000 tested, about 20% had one in any assay.
experimental readout: growth (%)
Numbers only here, please. The scale is %.

Some compounds with known growth results, for comparison:
# compound, target of assay, experimental readout, unit label, numeric result
measured = [
    ("COc1cc(/C=N/O)nc(-c2ccccn2)c1", "HOP-62 NSCLC", "growth", "%", 23.9),
    ("C=C1C(=O)O[C@H]2[C@H]1CC/C(CNS(=O)(=O)c1cccc3ccccc13)=C\\CC[C@@]1(C)O[C@@H]21", "HOP-62 NSCLC", "growth", "%", 94.9),
    ("Nc1nc(Nc2ccccc2SSc2ccccc2Nc2nc(N)nc(-c3ccc(C(F)(F)F)cc3)n2)nc(-c2ccc(C(F)(F)F)cc2)n1", "HOP-62 NSCLC", "growth", "%", 47.8),
    ("O=C(Nc1ccc(-c2ccc3c(c2)NC(=O)/C3=C\\c2ccc[nH]2)cc1)NC1CC1", "HOP-62 NSCLC", "growth", "%", 113),
]

Query compound follows.
The compound identified as CCOC(=O)c1cc(C(=O)c2ccc(Br)cc2)n2ccc(/C=C/c3cc[n+](CC(=O)c4ccc(OC)cc4)cc3)cc12 registered its growth at 100

----------
System: DU-145 prostate
assay: NCI-60 one-dose screen, 48 h (100 = growth as untreated, 0 = no growth, -100 = all killed)
measurement context: 10 µM unless noted
About 83,000 compounds went through this panel and 20% of them were active in at least one assay; those are over-represented in the sample as a whole.
experimental readout: growth (%)
Numbers only here, please. The scale is %.

# molecule, unit label, numeric result
data = [
    ("C=C1C(=O)O[C@H]2[C@H]1CC/C(COC(=O)NCc1c[nH]c3ccc(Cl)cc13)=C\\CC[C@@]1(C)O[C@@H]21", "%", -72.2),
    ("C#CCNC(=O)[C@]1(C)CC[C@]2(C)CC[C@@H]3C(=CC[C@H]4[C@@]3(C)CC[C@H]3C(C)(C)C(=O)CC[C@]43C)[C@@H]2C1", "%", 98.8),
    ("CC(=O)N1N=C(c2ccc(-n3ccc(C(F)(F)F)n3)c(F)c2)CC1c1ccc[nH]1 (stereo not given)", "%", 109),
]

Test item N#Cc1cc(-c2nc3ccccc3s2)c(=O)n(NS(=O)(=O)c2ccccc2)c1N ; DU-145 prostate; reported growth was 116

Test item CC(C)=CCC[C@](C)(O)[C@H]1CC[C@]2(C)[C@@H]1CC[C@@H]1[C@@]3(C)C/C(=C/c4ccccc4)C(=O)C(C)(C)[C@@H]3CC[C@]12C ; DU-145 prostate; reported growth was 85.3

----------
Reported growth values follow for various molecules
Tested on: SNB-19 CNS
assay: NCI-60 one-dose screen, 48 h (100 = growth as untreated, 0 = no growth, -100 = all killed)
measurement context: 10 µM unless noted
Compounds without any hit were thinned out: in the full panel of roughly 83,000, 20% have a hit.
Numbers only here, please. The scale is %.

# molecule, growth (%)
rows = [
    ("COc1cc(C=O)ccc1OC1OC(COC(C)=O)C(OC(C)=O)C(OC(C)=O)C1OC(C)=O (stereo not drawn)", 103),
]

The molecule identified as COC(=O)CNC(=O)[C@]12CCC(C)(C)C[C@H]1C1=CC[C@@H]3[C@@]4(C)Cc5c([nH]c6ccccc56)C(C)(C)[C@@H]4CC[C@@]3(C)[C@]1(C)CC2 registered its growth at 92.2

The molecule identified as Fc1ccc(-c2cn3c(nc4ccccc43)c(-c3ccccc3)n2)cc1 registered its growth at 103

----------
Reported growth values follow for various molecules
Test system: K-562 leukemia
assay: NCI-60 one-dose screen, 48 h (100 = growth as untreated, 0 = no growth, -100 = all killed)
measurement context: 10 µM unless noted
Method: Cells are grown in 96 well plates and exposed to the test compound for 48 hours. Compounds are tested at a single concentration, which is 10^-5 M for most compounds. The reported endpoint is percent growth (GI% or GIPRCNT), where numbers from 0 - 100% represent growth inhibition, and numbers from -100% - 0 represent cell death. For example, a value of 40 represents 60% growth inhibition. A value of 0 means no net growth occurred over the course of the experiment. […]
About 83,000 compounds went through this panel and 20% of them were active in at least one assay; those are over-represented in the sample as a whole.
Numbers only here, please. The scale is %.

# molecule, target of assay, growth, %
measured = [
    ("COc1ccc2c(c1)C(=O)CC(c1ccccc1OC)O2 (stereo unspecified)", "K-562 leukemia", 101),
    ("COc1cc(CC(=O)c2ccc(O)c(OC)c2)ccc1O", "K-562 leukemia", 89.1),
    ("N#Cc1c(NC(=O)NCc2ccccc2)sc2c1CCCC2", "K-562 leukemia", 14),
    ("Cc1ccc(CNc2c3ccccc3nc3cc(NC(=O)CCN4CCCC4)ccc23)cc1", "K-562 leukemia", -30.3),
    ("O=C(c1nnc(Nc2ccccc2Br)o1)c1c[nH]c2ccccc12", "K-562 leukemia", 112),
]

The molecule identified as c1ccc2c(-c3nccs3)c[nH]c2c1 registered its growth at 99.2

----------
System: DU-145 prostate
assay: NCI-60 one-dose screen, 48 h
measurement context: 10 µM unless noted
This is part of a sample that, as a whole, favours compounds with a hit. Of some 83,000 tested, about 20% had one in any assay. Calls of active or inactive are those of the source. The calls were made as follows: active = growth percent below 10; inactive = the rest.
The categories you may choose from are TRUE for active, FALSE for inactive

Examples from the recorded data:
# sample smiles, assigned category
measured = [
    ("COc1ccc(C(=O)c2nc3ccccc3n2CC(=O)c2ccc(F)cc2)cc1", "FALSE"),
    ("CNCCn1c(=O)c2cc(OC)c(OC)cc2c2ccc3cc4c(cc3c21)OCO4", "TRUE"),
    ("Cc1ncc(C(=O)Nc2ccc(CN3CCN(C)CC3)c(C(F)(F)F)c2)cc1C#Cc1cnc(N)cc1C#N", "TRUE"),
]

Hi, do you know how O=C1c2ccc3c4c(ccc(c24)C(=O)N1CCCNCc1ccccc1)C(=O)N(CCCNCc1ccccc1)C3=O came out in this test? TRUE

Hi, do you know how Cc1cc2nc3c4ccc(Br)cc4n(CCN(C)C)c3nc2cc1C came out in this test? TRUE

Hi, do you know how O=C(CNCCN1CCOCC1)N1c2cccc3cccc(c23)N(C(=O)CNCCN2CCOCC2)C1c1cn(-c2ccccc2)nc1-c1cccc([N+](=O)[O-])c1 came out in this test? FALSE

Hi, do you know how Cn1cc(-c2nc(-c3c[nH]c4c(Cl)nccc34)cs2)c2cc(F)ccc21 came out in this test? FALSE

Hi, do you know how N=C(N)c1ccc(OCCCCCCCCCCOc2ccc(C(=N)N)cc2)cc1 came out in this test? TRUE

Hi, do you know how O=C(NCCNc1nccc(-c2c(-c3cccc(F)c3)nc3sccn23)n1)c1ccc(Cl)cc1 came out in this test? FALSE

Hi, do you know how COc1cccc(-c2ccc3c(c2)NC(=O)/C3=C\c2ccc[nH]2)c1 came out in this test? FALSE
